Sourced from patent US9340577B2

System: B7-Like Supertype (B*0701, B*3501, B*5101, B*5301, B*5401)
Type: binding, human
No end group written: not given here.
Assignment: determine reported x-rxn for the given sequences.
Give bare numbers.

sequenceInput	reportedResult
IPFPSSWAF	4
MPKAGLLII	3

Below are some sequences; for each one, tell me its x-rxn.
1. LPGCMFSIF
2. FPVRPQVPI

1: 4; 2: 5

---

Would you mind telling me the reported pIC50 of each entry?
Molecular target: DRB1*1302 (Homo sapiens, UniProt P01903+P01911, A100E/A169T/K41T/L162R/M171V/P40S/Q125H/Q178H/Q39Y/Q99D/R42S/S66N/T262R/V115G/W38E/Y61H)
Sequence (P01903 26-254 limits assumed, other chains not shown): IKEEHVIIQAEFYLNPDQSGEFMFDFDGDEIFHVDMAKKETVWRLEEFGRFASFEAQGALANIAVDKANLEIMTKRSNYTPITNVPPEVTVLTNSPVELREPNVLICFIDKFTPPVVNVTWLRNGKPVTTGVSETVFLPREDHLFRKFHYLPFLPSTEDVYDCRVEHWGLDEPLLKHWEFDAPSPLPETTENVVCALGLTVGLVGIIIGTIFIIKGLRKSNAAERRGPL
Assay: biochemical
Type: binding
No end group written: not given here.
Numbers only, as −log10 of the molar value.

Here is how some sequences turned out for pIC50.
sequenceInput	reportedResult
VSKLMSQLLNIPETH [Peptide 89.0101]	5.02
CQAIELQLALEALNK [Peptide 90.0014]	6.67
EDLRTLQQLFLSTLS [Peptide 1543.21]	8.12
RVCLLFYSKVRKYRY [Peptide 1543.54]	7.05
TPEWIERQTVLQHSF [Peptide 89.0048]	5.26
WKAVRHENVLYYKAR [Peptide 90.0230]	6.58
FLDVVTIPNSVQISV [Peptide 1601.40]	7.28

Consider the sequence LSHVKIPVVYRLVWD [Peptide 90.0020] and give its recorded pIC50.
6.48
